# Test system: MDA-MB-231 breast
# TEST DESCRIPTION: NCI tumour cell line growth inhibition, 48 h
List of TGI values.

- COMPOUND: "Cn1c(-c2c(N)n(CCCN3CCOCC3)c3nc(C#N)c(C#N)nc23)nc2ccccc21"
  UNIT NAME: "µM"
  BOUND OPERATOR: ">"
  TGI: 53.1
- COMPOUND: "COc1ccc2oc(=O)c(-c3csc(C)n3)cc2c1"
  UNIT NAME: "µM"
  BOUND OPERATOR: "="
  TGI: 68
- COMPOUND: "Cc1nc2c(=S)n(C)ncc2[nH]1"
  UNIT NAME: "µM"
  BOUND OPERATOR: ">"
  TGI: 100
- COMPOUND: "C#CCOc1ccc2ncnc(Nc3ccc(NC(=O)C=C)cc3)c2c1"
  UNIT NAME: "µM"
  BOUND OPERATOR: ">"
  TGI: 100
- COMPOUND: "COc1ccccc1C[C@@H]1OC2(C=CC(=O)C=C2)O[C@H]1Cc1ccccc1OC"
  UNIT NAME: "µM"
  BOUND OPERATOR: "="
  TGI: 38.6
- COMPOUND: "Nc1ncnc2c1ncn2C1OC(CO)C(O)C1N (stereo unspecified)"
  UNIT NAME: "µM"
  BOUND OPERATOR: ">"
  TGI: 100
- COMPOUND: "CN(CC(=O)N(Cc1ccc(C2CCCCC2)cc1)c1ccc(C(=O)O)cc1)S(=O)(=O)c1c(F)c(F)c(F)c(F)c1F"
  UNIT NAME: "µM"
  BOUND OPERATOR: "="
  TGI: 3.51
- COMPOUND: "N=c1c2c(=N)n3c(nc2nc2n1-c1ccccc1Sc1ccccc1-2)sc1cc(Cl)ccc13"
  UNIT NAME: "µM"
  BOUND OPERATOR: "="
  TGI: 14
- COMPOUND: "CN(C)/N=C1\\CC(c2ccccc2)C(C#N)(C#N)C1(C#N)C#N (stereo unspecified)"
  UNIT NAME: "µM"
  BOUND OPERATOR: "="
  TGI: 36.9
- COMPOUND: "CSC(=Nc1ccccc1)/N=C(\\SCc1ccccc1)N(C)C"
  UNIT NAME: "µM"
  BOUND OPERATOR: "="
  TGI: 2.39
- COMPOUND: "O=C(COc1cccc(/C=C2\\CSc3ccccc3C2=O)c1)Nc1nccs1"
  UNIT NAME: "µM"
  BOUND OPERATOR: "="
  TGI: 21.4

----------
List of GI50 values.
# System: HCC-2998 colon
# TEST DESCRIPTION: NCI tumour cell line growth inhibition, 48 h

- COMPOUND: "CC(=O)[CH-]C(=O)c1ccccc1.CC(=O)[CH-]C(=O)c1ccccc1.C[C@]12CCC(=O)C=C1CC[C@@H]1C2CC[C@@]2(C)C1CC[C@]2(C)[O-].C[C@]12CCC(=O)C=C1CC[C@@H]1C2CC[C@@]2(C)C1CC[C@]2(C)[O-].Cl.[Ti+4] (stereo not given in full)"
  GI50: "17.3 µM"
- COMPOUND: "COc1cc2c3c(n(C)c(=O)c2cc1OC)-c1ccc(C#N)cc1C3=O"
  GI50: "> 100 µM"
- COMPOUND: "CO[C@H]1C[C@@H]2CC[C@@H](C)[C@@](O)(O2)C(=O)C(=O)N2CCCC[C@H]2C(=O)O[C@H]([C@H](C)C[C@@H]2CC[C@@H](OCCO)[C@H](OC)C2)CC(=O)[C@H](C)C=C(C)[C@@H](O)[C@@H](OC)C(=O)[C@H](C)C[C@H](C)/C=C/C=C/C=C1C"
  GI50: "4.48 µM"
- COMPOUND: "O=C1/C=C/[C@@H](O)[C@@H]2C[C@@H](O)C[C@H]2/C=C/CCC[C@H](C(F)(F)F)O1"
  GI50: "1.14 µM"
- COMPOUND: "CCC(=O)c1c(C(F)(F)F)n([O-])c2cc(F)c(F)cc2[n+]1=O"
  GI50: "1.45 µM"
